FYI, the data here is from PubChem BioAssay (NCI).

- System: OVCAR-4 ovarian
- Method: NCI-60 one-dose screen, 48 h (100 = growth as untreated, 0 = no growth, -100 = all killed)
- Condition Details: 10 µM unless noted
About 83,000 compounds went through this panel and 20% of them were active in at least one assay; those are over-represented in the sample as a whole. The source made the active and inactive calls. How the source made its calls: active means growth percent below 10; inactive means the rest.
This listing pairs molecules with measured growth.

Worked examples, 4 molecules total:
1) Cc1cc(C)cc(OCC(=O)O)c1: 113% (inactive)
2) S=CN1CCCCC1: 102% (inactive)
3) COc1c(CNC(=O)CCl)cc2[nH]c(C)cc2c1CNC(=O)CCl: 45.3% (inactive)
4) CC(C)(C)CC1(C)NC(=O)NC1=O (stereo unspecified): 106% (inactive)

Now for the molecule whose growth we want.
QUERY: If you can, please state the reported growth value of Oc1cc2ccccc2c(-c2c(O)c(O)cc3ccccc23)c1O .
RESULT: 27.3% (inactive)

---

- Tested on: RPMI-8226 leukemia
- Method: NCI-60 one-dose screen, 48 h
- Condition Details: 10 µM unless noted
Compounds without any hit were thinned out: in the full panel of roughly 83,000, 20% have a hit. Calls of active or inactive are those of the source. Rule for the calls: active = growth percent below 10; inactive = the rest.
Thanks in advance; please answer with one of these: True for active, False for inactive

QUERY: Record lookup: outcome of this test for C=CC(C)C(C)(C)O (configuration not stated) ?
RESULT: False

QUERY: Now this one: NC(=O)c1cc2c3ccccc3ccn2c1-c1ccccc1
RESULT: True

QUERY: Quick one: CC(=O)NNC(=S)N/C=C/c1c(C)ccc([N+](=O)[O-])c1[N+](=O)[O-]
RESULT: False

---

- System: NCI-H226 lung
- Method: NCI-60 one-dose screen, 48 h (100 = growth as untreated, 0 = no growth, -100 = all killed)
- Condition Details: 10 µM unless noted
This is part of a sample that, as a whole, favours compounds with a hit. Of some 83,000 tested, about 20% had one in any assay.
Reported Property: growth (%)
API: value field is a number in %; no unit string.

Would you please look over these solved cases?
1. Cc1cc(Cl)cc(Cc2cc(Cl)cc(C)c2O)c1O: 92.3
2. N#Cc1ccc2nc[nH]c2c1: 90.9
3. C=CCC(OC(C)=O)c1ccc(C(C)C)cc1 (configuration not stated): 106

QUERY: Bench note: what growth did COc1c(CNC(=O)CCl)cc2[nH]c(C)cc2c1CNC(=O)CCl show?
RESULT: 69.4

QUERY: Same for Cc1nc(C)c(C(=O)O)cc1C(=O)O
RESULT: 110

QUERY: Then what about the compound CC(C)=CCC[C@@H](C)[C@H]1CC[C@@]2(C)C3=C(CC[C@]12C)[C@@]1(C)CC[C@H](O)C(C)(C)[C@@H]1CC3 ?
RESULT: 104

QUERY: Can you check Cc1cccc2ccccc12 next?
RESULT: 97

QUERY: Likewise for CCCCNC(=O)c1ccc(OCC)cc1 ?
RESULT: 96

---

- Tested on: MDA-MB-435 melanoma
- Method: NCI-60 one-dose screen, 48 h
- Condition Details: 10 µM unless noted
The panel holds about 83,000 compounds, 20% with a hit somewhere; the sample as a whole holds those more often. Active and inactive are the calls of the source. The calls were made as follows: active = growth percent below 10; inactive = the rest.
The reply should be one of these categories: t for active, f for inactive

1. O=C(N/N=C\c1ccc(Cl)cc1Cl)c1ccncc1: f
2. NC(=S)c1c(N)n(C2OC(CO)C(O)C2O)c2ncnc(N)c12 (stereo not drawn): t
3. Cc1ccc(C)c(CCO)c1: f
4. COc1ccc(C2CC(c3ccccc3)=Nc3ccccc3S2)cc1 (stereo not drawn): f
5. N#Cc1ccc(OC(=O)Nc2cc(Cl)cc(Cl)c2)cc1: t
6. CCOc1ccncc1[N+](=O)[O-]: f
7. O=S(=O)(c1ccc(NC(=S)NCc2cccnc2)cc1)N1CCCCC1: f
8. CCOC(OCC)C(=O)c1ccccc1: f

QUERY: For CC(C)N(C(=O)c1ccccc1)C(C)C , which call appears in the assay record?
RESULT: f

QUERY: Again, but for CCN(CC)CCCC(C)NC(=S)N/N=C(\C)c1ccccn1 (stereo not drawn)
RESULT: f

QUERY: Likewise for Cc1ccc(O)c(N)c1 ?
RESULT: f

---

- Test system: NCI-H322M lung
- Method: NCI-60 one-dose screen, 48 h (100 = growth as untreated, 0 = no growth, -100 = all killed)
- Condition Details: 10 µM unless noted
- Description: Growth inhibition of the NCI-H322M human Non-Small Cell Lung tumor cell line is measured as a screen for anti-cancer activity. Cells are grown in 96 well plates and exposed to the test compound for 48 hours. Compounds are tested at a single concentration, which is 10^-5 M for most compounds. The reported endpoint is percent growth (GI% or GIPRCNT), where numbers from 0 - 100% represent growth inhibition, and numbers from -100% - 0 represent cell death. […]
About 83,000 compounds went through this panel and 20% of them were active in at least one assay; those are over-represented in the sample as a whole.
growth by entry:
Entry rule: numbers only, all in %.

Below are worked cases with known answers.
1) OCC1OC(n2ccc3c2ncn2ncnc32)C(O)C1O (stereo not given): 38.4
2) O=C1CSc2ccccc2N1: 109
3) CC(=O)Nc1ccc(C(=O)c2ccc(S(=O)(=O)Nc3ccccc3)cc2)cc1: 73.2

QUERY: Could you tell me which growth is on file for CC(C)=CCC[C@@H](C)[C@H]1CC[C@@]2(C)C3=C(CC[C@]12C)[C@@]1(C)CC[C@H](O)C(C)(C)[C@@H]1CC3 ?
RESULT: 122

QUERY: Also check NCCCN1CCCC1=O
RESULT: 96.9

---

Listed here: items and their measured growth.
- System: HCT-116 colon
- Method: NCI-60 one-dose screen, 48 h (100 = growth as untreated, 0 = no growth, -100 = all killed)
- Condition Details: 10 µM unless noted
This is part of a sample that, as a whole, favours compounds with a hit. Of some 83,000 tested, about 20% had one in any assay.
A number alone suffices; assume %.

In the examples that follow, each entry is paired with its recorded growth.
1) OC(CCN1CCCCC1)(c1ccccc1)c1ccccc1: 102
2) CC(=O)Nc1ccc(C(=O)c2ccc(S(=O)(=O)Nc3ccccc3)cc2)cc1: 75.4
3) CCOC(=O)c1cc(C)[nH]c(=O)c1C#N: 99.9
4) Cc1cc2nc(C)c(C)nc2cc1C: 112
5) CC(CCC#N)(CCC#N)C(=O)c1ccccc1: 112
6) Cc1ccccc1CC(N)C(=O)O (configuration not stated): 106

QUERY: Using the record for O=C(NCc1ccccc1)c1cccc([N+](=O)[O-])c1 , report its growth.
RESULT: 103

QUERY: How about this molecule: C#CCSc1nnnn1-c1ccccc1
RESULT: 71.6

QUERY: Consider next the molecule Cc1ccccc1NC(=O)Oc1ccc(Cl)cc1C(=O)c1ccccc1 in the same way.
RESULT: 90.2

QUERY: Next: O=C(CCl)Nc1ccccc1SCc1cc(Cl)cc2c1OCOC2
RESULT: 78.9

QUERY: Would you mind doing Cc1c(-c2ccc(C3CCCCC3)cc2)nc2ccc(F)cc2c1C(=O)O as well?
RESULT: 24.8

---

- System: SN12C renal
- Method: NCI-60 one-dose screen, 48 h
- Condition Details: 10 µM unless noted
The panel holds about 83,000 compounds, 20% with a hit somewhere; the sample as a whole holds those more often. Calls of active or inactive are those of the source. The calls were made as follows: active = growth percent below 10; inactive = the rest.
API: response.call in y = active, n = inactive

Example results:
1) CCCc1cccc(CCC)c1NC(=O)Nc1cc(Cl)cc(Cl)c1: n
2) N#Cc1ccc2nc[nH]c2c1: n
3) CCCCCCCCCc1ccc(OC(C)=O)cc1: n

QUERY: Hi, do you know how Nc1nc(Cl)cc(Cl)n1 came out in this test?
RESULT: n

QUERY: Try the compound CC1(C)CC(=O)C=C(N)C1
RESULT: n

QUERY: Would you kindly repeat that for Cc1cccnc1NC1OC(=O)c2ccccc21 (stereo not given) ?
RESULT: n

QUERY: Input CC(c1ccccc1)N1C(=O)CSC1=S (stereo not given)
RESULT: n

QUERY: Repeat with CCOc1ccc(C(=O)O)cc1
RESULT: n

---

- Tested on: OVCAR-5 ovarian
- Method: NCI-60 one-dose screen, 48 h
- Condition Details: 10 µM unless noted
- Description: Growth inhibition of the OVCAR-5 human tumor cell line is measured as a screen for anti-cancer activity. Cells are grown in 96 well plates and exposed to the test compound for 48 hours. Compounds are tested at a single concentration, which is 10^-5 M for most compounds. The reported endpoint is percent growth (GI% or GIPRCNT), where numbers from 0 - 100% represent growth inhibition, and numbers from -100% - 0 represent cell death. For example, a value of 40 represents 60% growth inhibition. […]
The panel holds about 83,000 compounds, 20% with a hit somewhere; the sample as a whole holds those more often. Activity calls are given as the source filed them. How the source made its calls: active means growth percent below 10; inactive means the rest.
One label from this list, please: true (active), false (inactive)

1. CCCCNC(=O)c1ccc(OCC)cc1: false
2. O=C1NC(=O)C(c2ccccc2)O1 (stereo unspecified): false
3. N#Cc1ccc2nc[nH]c2c1: false
4. CCOC(=O)c1c(C)[nH]c(C)c1C=O: false
5. Cc1ccccc1NC(=O)Oc1ccc(Cl)cc1C(=O)c1ccccc1: false

QUERY: Hey, what did the test say about O=C(Nc1c(Cl)cc(Cl)cc1Cl)ON=C1CCCCC1 ?
RESULT: false

QUERY: # repeat for CCNC(=O)Oc1ccc[nH]c1=O
RESULT: false

QUERY: Next entry: Nc1ccn(C2OC(CO)C(O)C2F)c(=O)n1 (stereo unspecified)
RESULT: false

QUERY: Try CC(C)C1CCC(C)C(O)C1 (stereo unspecified) next.
RESULT: false

QUERY: What about this compound? CCOP(=O)(OCC)/C(=C\N1C(=O)CC(=O)NC1=S)C(=O)OC
RESULT: false

QUERY: What do you get for NNc1ncnc2c1ncn2C1OC(CO)C(O)C1O (stereo unspecified) ?
RESULT: false

QUERY: Same again, this time with O=C(O)c1ccc(OCc2ccccc2)cc1
RESULT: false

QUERY: Okay, and O=C(O)C1CSC(c2ccccc2)N1 (stereo unspecified) ?
RESULT: false

QUERY: Another compound to look at: c1ccc2c(NCCCN3CCN(CCCNc4c5ccccc5nc5ccccc45)CC3)c3ccccc3nc2c1
RESULT: true

QUERY: Also need ClCC(Cl)[C@@H]1CC2C=CC1C2 (stereo partly specified) , thanks.
RESULT: false

QUERY: Same read-out for Cc1ccc(C)c(CCO)c1 ?
RESULT: false

QUERY: Same question for Nc1cc2ccccc2c(O)c1O please.
RESULT: false

QUERY: Try CCCC(=O)c1cccs1 next.
RESULT: false

QUERY: What would you report for C=CCc1cc(OC)c(O)c(OC)c1 ?
RESULT: false
